Just for reference, patent US12492252 is where these values come from.

I'd appreciate it if you could supply EC50 values for the items below.
Molecular target: T1, human GPC3 on cells (HepG2 cells expressing full length human GPC3; GPC3-transfected HEK293T cells) (human, UniProt P51654 25-554)
T1 construct: whole, on cells; also called GPC3-expressing HepG2 tumor cells
Test: flow cytometry on HepG2 cells
Numbers only, in nM.

Check out these entries, answers already filled in.
anti-human GPC3 IgG1 antibody clone 41 (antibody, V domains shown) VH: CQSVEESGGRLVTPGTALTLTCTVSGFSLSTYWMTWVRQAPGKGLEWIGIINPGGSAYYASWAKGRFTISKASSATVDLKMTSLTAADTATYFCAGGGGMDPWGPGTLVTVSS VL: DPVLTQTPSSVSAAVGGTVSISCQSSQSIIKNYLSWFQHKPGQPPKRLIYRASTLPSGVPSRFEGSGSGTEFTLTINDLECDDAATYYCAASYSDNIYVFGGGTEVVVKR = 0.014
anti-human GPC3 IgG1 antibody clone 49 (antibody, V domains shown) VH: CQSVEESGGRLVTPGTPLTLTCTVSGFSLSTYWMTWVRQAPGKGLEWIGIINPSGSAYYASWAKGRFTISKTSSATVDLKMTSLTAADTATYFCAGGGGMDPWGPGTLVTVSS VL: DPVLTQTPSSVSAAVGGTVSISCQSSQSIVKNYLSWFQQKPGQPPKRLIYKASTLPSGVPSRFKGSGSGTEFTLTISDLECDDAATYYCAASYSDNIYVFGGGTEVVVKR = 0.012

Proceed to the following item.
Q: Please look up its EC50: anti-human GPC3 IgG1 antibody clone 121 (antibody, V domains shown) VH: CQSVEESGGRLVTPGTPLTLTCTVSGFSLSTYWMTWVRQAPGKGLEWIGIINPAGSAYYASWAKGRFTISKTSSATVDLKMTSLTAVDTATYFCAGGGGMDPWGPGTLVTVSS VL: DPVLTQTPSSVSAAVGGTVTISCQSSQNIIKDYLSWFQQKPGQPPKRLIYKTSTLPSGVPSRFKGSGSGTEFTLTISDLECDDAATYYCAASYSGNIYVFGGGTEVVVKR
Ans: 0.0061
